- system: human α7 nAChR stably expressed in a HEK cell line (with human RIC-3) (Homo sapiens)
- Construct: PrecisION hnAChR α7/RIC-3
- assay.notes: Automated patch-clamp electrophysiology functional assay (Assay A), IonFlux HT, whole-cell population patch
- Assay type: cell-based
- setup.conditions: automated patch-clamp electrophysiology functional assay (Assay A); potency class by EC50; read-out: α7 nAChR Potency
pEC50: −log10 of the molar value.
Measured pEC50 values are reported for all entries that follow.

For Cc1nc([C@@H]2C[C@H]2c2ccc(S(N)(=O)=O)cc2)sc1-c1ccccc1 [Example 16] the compound record lists pEC50 as ≥ 7.00

Value of pEC50 reported for the compound CC1(C)[C@@H](c2ccc(S(N)(=O)=O)cc2)[C@@H]1c1noc(-c2ccc(OC(F)(F)F)cc2)n1 [Example H13] is 5.30 to 6.30

The reported value for CC1(C)[C@@H](c2ccc(S(N)(=O)=O)cc2)[C@@H]1c1noc(-c2c(F)cc(F)cc2F)n1 [Example H3] in terms of pEC50 is 6.30 to 7.00

Recorded pEC50 (compound NS(=O)(=O)c1ccc([C@@H]2C[C@H]2c2nc(-c3cccc(F)c3F)no2)cc1 [Example C15] ): 6.30 to 7.00

----------
- system: human α7 nAChR stably expressed in a HEK cell line (with human RIC-3) (Homo sapiens, UniProt P36544)
- Construct: PrecisION hnAChR α7/RIC-3
- Sequence (P36544 23-502): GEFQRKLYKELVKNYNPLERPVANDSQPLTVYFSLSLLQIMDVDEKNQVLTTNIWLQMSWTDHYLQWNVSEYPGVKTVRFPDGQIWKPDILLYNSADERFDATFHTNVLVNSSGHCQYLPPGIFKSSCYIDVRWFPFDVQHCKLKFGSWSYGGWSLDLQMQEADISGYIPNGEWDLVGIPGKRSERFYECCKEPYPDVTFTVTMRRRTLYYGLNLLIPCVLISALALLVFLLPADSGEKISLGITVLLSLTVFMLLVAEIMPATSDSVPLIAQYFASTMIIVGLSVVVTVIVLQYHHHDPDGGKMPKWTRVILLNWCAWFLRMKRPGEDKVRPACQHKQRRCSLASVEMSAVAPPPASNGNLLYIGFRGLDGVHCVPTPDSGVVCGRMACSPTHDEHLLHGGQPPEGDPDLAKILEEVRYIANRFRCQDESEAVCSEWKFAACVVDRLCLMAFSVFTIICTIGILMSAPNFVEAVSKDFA
- assay.notes: Automated patch-clamp electrophysiology functional assay (Assay A), IonFlux HT, whole-cell population patch
- Format: cell-based
- setup.conditions: automated patch-clamp electrophysiology functional assay (Assay A); potency class by EC50; read-out: α7 nAChR Potency
measurement.type: EC50

Some compounds with recorded EC50:
CC1(C)[C@@H](c2ccc(S(N)(=O)=O)cc2)[C@@H]1c1nc(-c2ccc(F)cc2F)co1 [Example K3] | 100 to 500 nM
CC1(C)[C@@H](c2ccc(S(N)(=O)=O)cc2)[C@@H]1c1nnc(-c2cc(F)ccc2C(F)(F)F)o1 [Example G6] | 500 to 5000 nM
CC(C)c1noc([C@H]2[C@H](c3ccc(S(N)(=O)=O)cc3)C2(C)C)n1 [Example D5] | 100 to 500 nM

Continue with the next compound.
Quick note, EC50 for C#Cc1ccc(-c2nc([C@H]3[C@H](c4ccc(S(N)(=O)=O)cc4)C3(C)C)no2)cc1 [Example H11] landed at 500 to 5000 nM
